# Test system: hCMEC
# assay-procedure: TS MDAI hCMEC (Table S2)
# Assay type: cell-based, human
# Design: scale not given here
# condition-parameters: Table S2
Give measured TS MDAI hCMEC for each item. Keep answers brief.
Returns: the value as a bare number; no unit string appended.

I am curious: what TS MDAI hCMEC value has been reported for CNc1c(C)n(C)n(-c2ccccc2)c1=O [4-Methylaminoantipyrine] ? 1.26

I am curious: what TS MDAI hCMEC value has been reported for CC(C)(C(=O)O)c1ccc(C(O)CCCN2CCC(C(O)(c3ccccc3)c3ccccc3)CC2)cc1 (stereo not shown) [Fexofenadine] ? 1.50

I am curious: what TS MDAI hCMEC value has been reported for `O=C(O[C@H]1CN2CCC1CC2)N1CCc2ccccc2[C@@H]1c1ccccc1` ? 0.44

I am curious: what TS MDAI hCMEC value has been reported for `C=CCN1C[C@H](C(=O)N(CCCN(C)C)C(=O)NCC)C[C@@H]2c3cccc4[nH]cc(c34)C[C@H]21` ? 0.44

I am curious: what TS MDAI hCMEC value has been reported for CC(C)NCC(O)COc1cccc2[nH]ccc12 (stereo not shown) ? 0.83

I am curious: what TS MDAI hCMEC value has been reported for CNCCC(Oc1ccc(C(F)(F)F)cc1)c1ccccc1 (stereo not shown) ? 0.13

I am curious: what TS MDAI hCMEC value has been reported for CN(C)CC(c1ccc(O)cc1)C1(O)CCCCC1 (stereo not shown) ? 0.61

====

# tgt: MATE2K (Homo sapiens)
# Sequence (Q86VL8 1-566 isoform Q86VL8-3): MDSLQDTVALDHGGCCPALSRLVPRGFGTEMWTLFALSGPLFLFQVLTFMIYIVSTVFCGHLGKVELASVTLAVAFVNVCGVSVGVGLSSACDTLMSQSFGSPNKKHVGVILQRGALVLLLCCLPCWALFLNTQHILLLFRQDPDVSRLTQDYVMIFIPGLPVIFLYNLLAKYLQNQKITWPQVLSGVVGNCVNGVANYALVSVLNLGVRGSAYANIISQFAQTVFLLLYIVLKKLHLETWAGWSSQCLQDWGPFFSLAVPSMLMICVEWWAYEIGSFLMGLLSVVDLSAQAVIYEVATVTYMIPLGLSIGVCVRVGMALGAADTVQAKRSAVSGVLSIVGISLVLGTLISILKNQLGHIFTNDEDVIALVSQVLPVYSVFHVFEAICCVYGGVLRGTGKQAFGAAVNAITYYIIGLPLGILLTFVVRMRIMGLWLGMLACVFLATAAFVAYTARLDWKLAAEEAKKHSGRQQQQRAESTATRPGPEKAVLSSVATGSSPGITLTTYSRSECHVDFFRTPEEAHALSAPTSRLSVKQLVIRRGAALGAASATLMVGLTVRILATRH
# assay-procedure: Concentration-dependent uptake (Michaelis-Menten) via MATE2K in HEK293 cells
# condition-parameters: HEK293, 1 min, net uptake
recorded-metric: MATE2K Vmax

I am curious: what MATE2K Vmax value has been reported for `c1c2c(cc3c1OCO3)-c1cc3ccc4c(c3c[n+]1CC2)OCO4` ? 246 pmol × mg protein^–1 × min^–1

I am curious: what MATE2K Vmax value has been reported for `COCCn1c2c([n+](Cc3cnccn3)c1C)C(=O)c1ccccc1C2=O` ? 78.5 pmol × mg protein^–1 × min^–1

I am curious: what MATE2K Vmax value has been reported for `CNC[C@H](O)c1cccc(O)c1` ? 776 pmol × mg protein^–1 × min^–1

====

# tgt: MATE1 (Homo sapiens, UniProt Q96FL8)
# Sequence (Q96FL8 whole entry): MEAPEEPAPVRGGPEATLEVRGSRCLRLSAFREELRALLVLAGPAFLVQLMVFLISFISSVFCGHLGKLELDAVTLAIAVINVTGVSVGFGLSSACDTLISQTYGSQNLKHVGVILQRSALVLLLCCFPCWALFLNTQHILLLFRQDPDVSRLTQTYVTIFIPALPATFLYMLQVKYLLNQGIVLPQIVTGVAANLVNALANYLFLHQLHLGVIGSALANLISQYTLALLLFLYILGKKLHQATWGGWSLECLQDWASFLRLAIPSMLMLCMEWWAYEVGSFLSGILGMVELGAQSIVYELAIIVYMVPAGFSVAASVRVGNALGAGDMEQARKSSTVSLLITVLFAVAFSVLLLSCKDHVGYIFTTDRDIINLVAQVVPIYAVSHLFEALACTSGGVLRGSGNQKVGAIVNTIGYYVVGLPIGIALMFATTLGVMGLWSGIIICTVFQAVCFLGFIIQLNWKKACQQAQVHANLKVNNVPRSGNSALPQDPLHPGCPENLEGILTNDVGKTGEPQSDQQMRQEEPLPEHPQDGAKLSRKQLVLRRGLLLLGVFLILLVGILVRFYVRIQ
# assay-procedure: Uptake ratio in MATE1-overexpressing HEK293 cells vs empty vector (2.5 μM, 1 min, HPLC-MS/MS)
# Type: cell-based
# condition-parameters: fold uptake over empty vector, 2.5 μM, 1 min
recorded-metric: MATE1 ratio
Returns: the value as a bare number; no unit string appended.

Lab request: please report MATE1 ratio under test system MATE1 (Homo sapiens, UniProt Q96FL8) for Cn1c(=O)c2c(ncn2CCCNCC(O)c2cc(O)cc(O)c2)n(C)c1=O (centres unmarked) [Reproterol] 5.18

Lab request: please report MATE1 ratio under test system MATE1 (Homo sapiens, UniProt Q96FL8) for CC(C)C[C@H](N)C(=O)O [Leucine] 1.18

Lab request: please report MATE1 ratio under test system MATE1 (Homo sapiens, UniProt Q96FL8) for CC(=O)Oc1c(C)cc(OCC(O)CNC(C)C)c(C)c1C (centres unmarked) [Metipranolol] 1.21

Lab request: please report MATE1 ratio under test system MATE1 (Homo sapiens, UniProt Q96FL8) for Clc1cccc(Cl)c1N=C1NCCN1 [Clonidine] 1.11

Lab request: please report MATE1 ratio under test system MATE1 (Homo sapiens, UniProt Q96FL8) for C=CCOc1ccccc1OCC(O)CNC(C)C (centres unmarked) [Oxprenolol] 1.05

Lab request: please report MATE1 ratio under test system MATE1 (Homo sapiens, UniProt Q96FL8) for NCCc1ccccc1 [2-Phenylethylamine] 1.39

Lab request: please report MATE1 ratio under test system MATE1 (Homo sapiens, UniProt Q96FL8) for CCc1nn(CCCN2CCN(c3cccc(Cl)c3)CC2)c(=O)n1CCOc1ccccc1 [Nefazodone] 1.34

Lab request: please report MATE1 ratio under test system MATE1 (Homo sapiens, UniProt Q96FL8) for N=C(N)N1CCc2ccccc2C1 [Debrisoquine] 8.16

Lab request: please report MATE1 ratio under test system MATE1 (Homo sapiens, UniProt Q96FL8) for O=C(NCC1CCCCN1)c1cc(OCC(F)(F)F)ccc1OCC(F)(F)F (centres unmarked) [Flecainide] 1.13

Lab request: please report MATE1 ratio under test system MATE1 (Homo sapiens, UniProt Q96FL8) for CN(C)CCC=C1c2ccccc2COc2ccccc21 [Doxepin (E), Doxepin] 1.26

Lab request: please report MATE1 ratio under test system MATE1 (Homo sapiens, UniProt Q96FL8) for COc1nc(C)nc(Cl)c1N=C1NCCN1 [Moxonidine] 2.02

Lab request: please report MATE1 ratio under test system MATE1 (Homo sapiens, UniProt Q96FL8) for N=C(N)N1Cc2ccccc2C(O)C1 (centres unmarked) [4-Hydroxydebrisoquine] 9.59

Lab request: please report MATE1 ratio under test system MATE1 (Homo sapiens, UniProt Q96FL8) for CN(C)CCc1c[nH]c2ccc(Cn3cncn3)cc12 [Rizatriptan] 6.63

Lab request: please report MATE1 ratio under test system MATE1 (Homo sapiens, UniProt Q96FL8) for O=C1CCc2ccc(OCCCCN3CCN(c4cccc(Cl)c4Cl)CC3)cc2N1 [Aripiprazole] 1.32

Lab request: please report MATE1 ratio under test system MATE1 (Homo sapiens, UniProt Q96FL8) for O=C(Nc1nc2cccc(-c3ccc(CN4CCS(=O)(=O)CC4)cc3)n2n1)C1CC1 [Filgotinib] 0.89

Lab request: please report MATE1 ratio under test system MATE1 (Homo sapiens, UniProt Q96FL8) for CN1CCN(CC(=O)N2c3ccccc3C(=O)Nc3cccnc32)CC1 [Pirenzepine] 2.80

Lab request: please report MATE1 ratio under test system MATE1 (Homo sapiens, UniProt Q96FL8) for N=C(N)NC(=O)Cc1c(Cl)cccc1Cl [Guanfacine] 1.60
